target: NaV1.2 (Rattus norvegicus, UniProt P04775); construct: gene Scn2a; rat brain type IIA Na+ channel clone; test: whole-cell patch clamp in transfected HEK293T cells; assay type: cell-based
Sequence (P04775 whole entry): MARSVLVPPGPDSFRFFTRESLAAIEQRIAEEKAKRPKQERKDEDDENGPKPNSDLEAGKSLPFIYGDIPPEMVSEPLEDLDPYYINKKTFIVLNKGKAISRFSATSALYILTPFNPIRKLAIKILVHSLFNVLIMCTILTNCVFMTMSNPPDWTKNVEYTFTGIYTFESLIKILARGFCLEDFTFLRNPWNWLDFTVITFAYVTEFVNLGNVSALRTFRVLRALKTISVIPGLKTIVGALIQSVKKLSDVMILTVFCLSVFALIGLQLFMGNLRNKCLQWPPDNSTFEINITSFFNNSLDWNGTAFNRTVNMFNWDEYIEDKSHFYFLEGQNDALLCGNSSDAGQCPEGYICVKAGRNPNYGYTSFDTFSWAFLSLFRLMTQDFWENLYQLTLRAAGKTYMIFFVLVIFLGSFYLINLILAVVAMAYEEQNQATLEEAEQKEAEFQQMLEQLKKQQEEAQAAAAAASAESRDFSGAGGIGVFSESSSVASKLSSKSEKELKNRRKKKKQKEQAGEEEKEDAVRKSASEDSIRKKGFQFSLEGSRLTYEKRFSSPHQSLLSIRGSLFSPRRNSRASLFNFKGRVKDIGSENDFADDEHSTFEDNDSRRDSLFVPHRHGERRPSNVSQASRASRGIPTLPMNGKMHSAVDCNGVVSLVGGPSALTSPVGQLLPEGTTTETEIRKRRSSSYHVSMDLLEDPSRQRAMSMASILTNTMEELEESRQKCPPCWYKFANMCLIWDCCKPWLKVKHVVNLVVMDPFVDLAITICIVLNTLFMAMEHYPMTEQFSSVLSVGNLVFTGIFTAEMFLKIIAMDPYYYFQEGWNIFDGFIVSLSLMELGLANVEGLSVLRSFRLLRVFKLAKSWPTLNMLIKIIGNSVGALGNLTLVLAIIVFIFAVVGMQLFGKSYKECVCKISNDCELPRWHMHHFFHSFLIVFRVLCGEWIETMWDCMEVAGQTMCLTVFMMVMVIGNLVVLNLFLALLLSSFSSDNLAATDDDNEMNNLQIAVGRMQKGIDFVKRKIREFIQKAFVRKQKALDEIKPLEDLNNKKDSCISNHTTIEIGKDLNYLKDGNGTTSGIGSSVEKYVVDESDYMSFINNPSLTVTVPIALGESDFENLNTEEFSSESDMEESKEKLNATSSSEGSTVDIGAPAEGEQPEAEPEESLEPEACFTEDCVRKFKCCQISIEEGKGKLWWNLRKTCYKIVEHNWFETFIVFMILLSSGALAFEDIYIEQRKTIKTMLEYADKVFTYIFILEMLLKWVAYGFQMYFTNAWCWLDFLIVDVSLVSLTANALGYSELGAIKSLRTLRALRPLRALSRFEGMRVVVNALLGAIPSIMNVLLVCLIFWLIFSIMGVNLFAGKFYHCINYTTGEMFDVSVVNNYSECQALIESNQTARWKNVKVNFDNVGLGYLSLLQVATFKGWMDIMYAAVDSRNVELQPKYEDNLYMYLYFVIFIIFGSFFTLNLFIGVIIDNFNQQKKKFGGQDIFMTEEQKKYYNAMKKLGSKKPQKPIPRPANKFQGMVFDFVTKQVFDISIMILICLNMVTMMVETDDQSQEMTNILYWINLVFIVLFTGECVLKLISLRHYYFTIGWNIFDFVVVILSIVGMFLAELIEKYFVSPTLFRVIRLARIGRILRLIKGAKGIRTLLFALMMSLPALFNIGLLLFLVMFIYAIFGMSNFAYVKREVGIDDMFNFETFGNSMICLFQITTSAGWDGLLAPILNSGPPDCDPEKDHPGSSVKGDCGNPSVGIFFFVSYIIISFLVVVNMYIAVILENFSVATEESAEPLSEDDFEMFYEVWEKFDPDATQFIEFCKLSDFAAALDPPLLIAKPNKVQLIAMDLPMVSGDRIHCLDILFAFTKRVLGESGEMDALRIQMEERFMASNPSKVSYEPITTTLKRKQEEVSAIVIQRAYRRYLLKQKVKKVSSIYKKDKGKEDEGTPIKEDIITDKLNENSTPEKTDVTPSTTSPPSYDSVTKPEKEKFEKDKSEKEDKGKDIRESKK
readout label: pIC50
Entry type: numeric. Quantity: pIC50, the -log10 of concentration in molar units.

Bench note: what pIC50 did C=CCN1CC[C@]2(C)c3cc(O)ccc3C[C@H]1[C@H]2C [(+)-SKF 10047] show? 3.85
